- target_under_test: Retinoic acid receptor gamma (Mus musculus, UniProt P18911)
- Sequence (P18911 whole entry): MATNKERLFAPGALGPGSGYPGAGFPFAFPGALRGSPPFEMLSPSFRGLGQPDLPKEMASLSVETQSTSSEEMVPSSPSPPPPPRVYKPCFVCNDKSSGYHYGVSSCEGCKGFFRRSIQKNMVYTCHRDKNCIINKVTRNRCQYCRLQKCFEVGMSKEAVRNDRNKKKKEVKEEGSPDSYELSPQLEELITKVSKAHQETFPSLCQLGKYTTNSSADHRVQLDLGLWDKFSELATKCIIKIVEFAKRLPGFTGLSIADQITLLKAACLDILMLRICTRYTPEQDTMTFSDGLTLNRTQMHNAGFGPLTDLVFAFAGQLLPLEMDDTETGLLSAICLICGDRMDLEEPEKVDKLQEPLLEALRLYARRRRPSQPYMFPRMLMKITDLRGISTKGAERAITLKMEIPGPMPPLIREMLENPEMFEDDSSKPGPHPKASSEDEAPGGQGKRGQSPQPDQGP
- assay_comment: Transactivation of GAL4-fused mouse RARgamma-LBD expressed in COS-7 cells after 24 hrs by bright-Glo reagent based assay
readout_label: EC50 (nM)

Input: Please provide the recorded EC50 for `CCOc1c(Cl)cc(C(=O)Nc2ccc(C(=O)O)cc2)cc1Cl` , tested on Retinoic acid receptor gamma (Mus musculus, UniProt P18911).
Output: 30000

Input: Please provide the recorded EC50 for `CCOc1c(Cl)cc(-c2nnc(-c3ccc(C(=O)O)cc3)o2)cc1Cl` , tested on Retinoic acid receptor gamma (Mus musculus, UniProt P18911).
Output: 150

Input: Please provide the recorded EC50 for `CCOc1c(Cl)cc(-c2noc(-c3ccc(C(=O)O)cc3)n2)cc1Cl` , tested on Retinoic acid receptor gamma (Mus musculus, UniProt P18911).
Output: 5.4

a: CCOc1c(Cl)cc(-c2csc(-c3ccc(C(=O)O)cc3)n2)cc1Cl
b: CCOc1c(Cl)cc(-c2cnc(-c3ccc(C(=O)O)cc3)o2)cc1Cl
Input: Param pair: a , b . Output: the one whose EC50 is numerically greater. Which one? Tell me its label.
Output: a
